MIC for assorted molecules
# Tested on: Candida albicans
# assay.remarks: Antifungal activity against Candida albicans
# Assay type: functional
Numbers only; they are read as µg/mL.

Example results:
What value of MIC on Candida albicans does Cc1ccc(/N=c2\oc3c(C)ncc(CO)c3cc2C(=O)Nc2cccc(C)c2)cc1 have?
50

What value of MIC on Candida albicans does COc1ccc(NC(=O)c2cc3c(CO)cnc(C)c3o/c2=N\c2ccc(Cl)c(Cl)c2)cc1 have?
12.5

What value of MIC on Candida albicans does Cc1cccc(NC(=O)c2cc3c(CO)cnc(C)c3o/c2=N\c2ccc(C)c(C)c2)c1 have?
12.5

What value of MIC on Candida albicans does Cc1ncc(CO)c2cc(C(=O)Nc3ccccc3)/c(=N/c3ccccc3)oc12 have?
50

What value of MIC on Candida albicans does CCc1ccccc1/N=c1\oc2c(C)ncc(CO)c2cc1C(=O)Nc1ccc(C)cc1 have?
50

Continuing:
What value of MIC on Candida albicans does COc1cc(/N=c2\oc3c(C)ncc(CO)c3cc2C(=O)Nc2ccccc2)cc(OC)c1 have?
100

What value of MIC on Candida albicans does Cc1cccc(NC(=O)c2cc3c(CO)cnc(C)c3o/c2=N\c2cccc(Cl)c2)c1 have?
50

What value of MIC on Candida albicans does CCc1ccc(NC(=O)c2cc3c(CO)cnc(C)c3o/c2=N\c2ccc3c(c2)OCO3)cc1 have?
12.5

What value of MIC on Candida albicans does Cc1cccc(/N=c2\oc3c(C)ncc(CO)c3cc2C(=O)Nc2ccccc2)c1 have?
100

What value of MIC on Candida albicans does Cc1ccc(NC(=O)c2cc3c(CO)cnc(C)c3o/c2=N\c2ccc(Br)cc2)cc1 have?
25

###

MIC for assorted compounds
# Test system: Candida albicans
# assay.remarks: Antifungal activity against Candida albicans
# Type: functional
Mention the unit after the number when you answer.

Example results:
Return reported MIC; argument: Cc1cccc(NC(=O)c2cc3c(CO)cnc(C)c3o/c2=N\c2ccccc2)c1
12.5 µg/mL

Return reported MIC; argument: COc1cc(/N=c2\oc3c(C)ncc(CO)c3cc2C(=O)Nc2cccc(C)c2)cc(OC)c1
12.5 µg/mL

Continuing:
Return reported MIC; argument: Cc1ncc(CO)c2cc(C(=O)Nc3ccccc3)/c(=N/c3ccc(Oc4ccccc4)cc3)oc12
50 µg/mL

Return reported MIC; argument: COc1ccccc1/N=c1\oc2c(C)ncc(CO)c2cc1C(=O)Nc1ccc(C)cc1
25 µg/mL

Return reported MIC; argument: COc1ccc(/N=c2\oc3c(C)ncc(CO)c3cc2C(=O)Nc2cccc(C)c2)c(OC)c1
50 µg/mL

Return reported MIC; argument: Cc1cccc(/N=c2\oc3c(C)ncc(CO)c3cc2C(=O)Nc2ccccc2C)c1
12.5 µg/mL

Return reported MIC; argument: Cc1ccc2nc(-c3ccc(/N=c4\oc5c(C)ncc(CO)c5cc4C(=O)Nc4ccccc4)cc3)sc2c1
50 µg/mL

Return reported MIC; argument: Cc1ccc(NC(=O)c2cc3c(CO)cnc(C)c3o/c2=N\c2cccc(Cl)c2)cc1
25 µg/mL

Return reported MIC; argument: Cc1ccc(/N=c2\oc3c(C)ncc(CO)c3cc2C(=O)Nc2ccccc2C)cc1C
100 µg/mL

Where do the numbers come from? From ChEMBL document CHEMBL1141859.
